system: Plasmodium berghei; assay: Screen against P. berghei liver stage (PbLuc), transformed with Luciferase, at 10uM; format: functional, HepG2; settings: tested at 10 uM
Hit rate of the full screen: of about 69,000 compounds, about 8,600 (12%) showed an effect of 50% or more. Many of the other results were omitted from the sample, so strong results are more common in it than they were.
Could you please report measured INHIBITION for the items listed next?
Reply numerically in %, unit not repeated.

Dear colleague, I am looking for the recorded INHIBITION of the following molecule: Cc1nc(C)c(C(=O)NCCNC(=O)Cc2ccc(F)cc2)s1
-29.9

Same read-out for O=C(c1csc(I)c1)N1CCc2c(ncn2C2CC2)C1 ?
76

Same read-out for Nc1nccc(N2CCCC(CO)(CCOc3ccccc3)C2)n1 (configuration not stated) ?
86.8

Same read-out for Nc1nccnc1C1CN(C(=O)c2cnc(C3CC3)nc2)CCO1 (configuration not stated) ?
26.8

Same read-out for CN1CC[C@H]2[C@H](C[C@@H](Cn3cncn3)N2c2nccs2)C1 ?
69.7

Same read-out for O=C(CC(F)(F)F)Nc1cc(F)ccc1OCC1CCCO1 (configuration not stated) ?
-6.14

Same read-out for CCN1CCC2(CC1)CN(C(=O)c1cccnc1)c1ccc(Cl)cc12 ?
60.2

Same read-out for Cc1nc(-c2cncnc2C2CCCNC2)no1 (configuration not stated) ?
-3.45

Same read-out for Cc1cc(C(=O)NCC(c2ccsc2)N(C)C)no1 (configuration not stated) ?
24

Same read-out for CC(C)Cc1nc(-c2ccnc(N3CCNCC3)n2)no1 ?
31.2

Same read-out for COCCN1CCN(Cc2cnc(C3(C)CCCCO3)nc2)CC1 (configuration not stated) ?
3.25

Same read-out for CC(=O)N1[C@H](Cn2cncn2)C[C@@H]2CN(CC3CC3)CC[C@@H]21 ?
-1.83

Same read-out for Cc1ccc(NC(=O)Cc2cnc3n(C)c(=O)[nH]c(=O)n23)cc1 ?
0.207

Same read-out for Cc1cn2nc(N3CCCCC3Cn3cccn3)sc2n1 (configuration not stated) ?
11.6

Same read-out for N#Cc1cccc(NC(=O)C2CCCN2c2nccs2)c1 (configuration not stated) ?
17.865

Same read-out for Cc1noc(CN(C)Cc2ccc3c(c2)OCO3)n1 ?
19.2

Same read-out for COc1nc2c(cc1C(=O)NC(C)Cc1cnccn1)CCC2 (configuration not stated) ?
-40.5

Same read-out for CC(=O)N1CC[C@H]2[C@H](C[C@@H](CN3CCCC3)N2c2nccs2)C1 ?
0.71

Same read-out for O=C(Cc1c[nH]c2ccccc12)N1CCC(Nc2cccnn2)CC1 ?
21.8

Same read-out for O=C(c1cccc2cccnc12)N1CCCC(n2ccnc2)C1 (configuration not stated) ?
17.02

Same read-out for CCCN1CCC2(CC1)CN(C(=O)c1cccnc1)c1ccc(F)cc12 ?
26.7

Same read-out for CC(C)=CCC1(C(=O)O)CCCN(c2ccnc(N)n2)C1 (configuration not stated) ?
15

Same read-out for COc1ncnc2c1CCN(Cc1nccs1)CC2 ?
-20.1

Same read-out for CNc1ccc(C2CN(c3nc(C)cc(C)n3)CCO2)nc1 (configuration not stated) ?
-7.9

Same read-out for CCc1ccc(C(=O)N2CCN(Cc3ccc(F)cc3)CC2)s1 ?
68.5

Same read-out for CC(=O)N1CCc2nnc(C3CCCCN3CC3CC3)n2CC1 (configuration not stated) ?
3.91

Same read-out for N#Cc1cccnc1N1CCCC(CO)(CCOc2ccccc2)C1 (configuration not stated) ?
23.8

Same read-out for Cn1cc(CC(=O)N2CCC(Nc3cccnn3)CC2)c2ccccc21 ?
66.8

Same read-out for CCS(=O)(=O)N1C[C@@H](c2cc(O)nc(C)n2)[C@H](c2ccccc2F)C1 ?
3.69

Same read-out for Cc1noc(C)c1CC(=O)N1CCC(Nc2cccnn2)CC1 ?
17.883

Same read-out for CCc1nc(N2CCCC(CO)(CCOC)C2)ncc1C (configuration not stated) ?
-1.83

Same read-out for O=C(CN1CCc2sccc2C1)Nc1nccs1 ?
-41.6

Same read-out for Cc1nc(CN2C(=O)CC[C@@H]3[C@H]2CCN3C(=O)c2ccccn2)cs1 ?
48.6

Same read-out for Cc1cnn(CCNCc2csc(-c3ncccn3)n2)c1 ?
27.95

Same read-out for OCC1(CCOc2ccccc2)CCN(c2ccc(Cl)cn2)CC1 ?
32.2

Same read-out for CN(C)c1ncccc1C(=O)N1CCc2c(ncn2C2CC2)C1 ?
-10.785

Same read-out for CCc1nnsc1C(=O)N1CCCN(Cc2ccc(F)cc2)CC1 ?
-0.219

Same read-out for Cc1ncsc1CN1C[C@@H]2COC[C@]2(C(=O)NC(C)C)C1 ?
18.6

Same read-out for CCN(Cc1cccc2c1OCO2)C(=O)C(C)c1cccnc1 (configuration not stated) ?
40.9

Same read-out for CN(CC(=O)NC1CC1)C(=O)c1csc(Br)c1 ?
37.2

Same read-out for CN1CC[C@H]2[C@H](C[C@@H](CN3CCCC3)N2c2nccs2)C1 ?
34.5

Same read-out for COC(=O)c1ccc(C(=O)N2CCc3c(ncn3C3CC3)C2)cc1 ?
-36.95

Same read-out for CC1c2ncc(Cn3cccn3)n2CCN1S(=O)(=O)C1CC1 (configuration not stated) ?
30.3

Same read-out for Cc1nn(C)c(C)c1CC(=O)N1CCC(Nc2cccnn2)CC1 ?
53.5

Same read-out for CC(c1cccc(F)c1)N1CCN(Cc2nccn2C)CC1 (configuration not stated) ?
-39.7

Same read-out for Cc1ccc(N2CC[C@H](OCC3CC3)[C@@H]2Cc2cccnc2)nn1 ?
42.4

Same read-out for CC(=O)N1CC[C@H]2[C@H](C[C@@H](Cn3cncn3)N2c2nccs2)C1 ?
85.4

Just for reference, ChEMBL document CHEMBL4513216 is where these values come from.
